Reported MIC values follow for various compounds
- Tested on: Staphylococcus aureus
- TEST_NAME: In vitro antibacterial activity against Staphylococcus aureus FabI
Write the answer as a number in µg/mL, unit excluded.

Ask: Request the reported MIC associated with "Cc1cc(C(=O)N2CCc3c(n(Cc4ccc(O)cc4)c4ccccc34)C2)ccc1O"
Reply: 1

Ask: Request the reported MIC associated with "O=C(c1ccccc1O)N1CCc2c(n(Cc3ccc(O)cc3)c3ccccc23)C1"
Reply: 4

Ask: Request the reported MIC associated with "Cc1ccc(C(=O)N2CCc3c(n(Cc4ccc(O)cc4)c4ccccc34)C2)c(O)c1"
Reply: 1

* * *

Reported pIC50 values follow for various compounds
- ASSAY_SYSTEM: Enoyl-[acyl-carrier-protein] reductase [NADH] FabI (Escherichia coli K-12)
- Sequence (P0AEK4 whole entry): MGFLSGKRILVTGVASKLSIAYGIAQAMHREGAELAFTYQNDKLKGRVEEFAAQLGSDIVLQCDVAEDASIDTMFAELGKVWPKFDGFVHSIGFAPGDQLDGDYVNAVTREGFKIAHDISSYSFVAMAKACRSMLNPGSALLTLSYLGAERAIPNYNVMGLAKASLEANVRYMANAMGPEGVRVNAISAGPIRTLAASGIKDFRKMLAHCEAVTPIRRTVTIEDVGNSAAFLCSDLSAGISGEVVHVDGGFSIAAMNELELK
- TEST_NAME: Antibacterial activity against Escherichia coli FabI
// pIC50 is dimensionless: -log10 of concentration (M)

A selection of reference data follows.
In [3]: df
Out[3]:
                              smiles_string  assay_result
0  Cc1ccc(C(=O)N2CCc3c(n(Cc4ccc(O)cc4)c4ccccc34)C2)c(O)c1          5.09
1  O=C(c1ccccc1)N1CCc2c(n(Cc3ccc(O)cc3)c3ccccc23)C1          5.57

Here is the next item to consider.
Ask: API: value(readout=pIC50, system=Enoyl-[acyl-carrier-protein] reductase [NADH] FabI (Escherichia coli K-12)) for record "Nc1ccc(C(=O)N2CCc3c(n(Cc4ccc(O)cc4)c4ccccc34)C2)cc1"
Reply: 5.40
